molecular target: HDAC6 enzyme (Homo sapiens); construct: transducing full length HDAC6 gene into Sf-9 insect cells; GST; purchased SignalChem; host or cells: Sf-9 insect cells; assay: HDAC6 enzyme inhibitory activity (HDAC-Glo I/II Assay kit); type: biochemical; details: 10 μM; wells without enzyme = 100% inhibition; read-out: HDAC6 inhibitory rate (%) (10 μM)
Sequence (Q9UBN7 whole entry): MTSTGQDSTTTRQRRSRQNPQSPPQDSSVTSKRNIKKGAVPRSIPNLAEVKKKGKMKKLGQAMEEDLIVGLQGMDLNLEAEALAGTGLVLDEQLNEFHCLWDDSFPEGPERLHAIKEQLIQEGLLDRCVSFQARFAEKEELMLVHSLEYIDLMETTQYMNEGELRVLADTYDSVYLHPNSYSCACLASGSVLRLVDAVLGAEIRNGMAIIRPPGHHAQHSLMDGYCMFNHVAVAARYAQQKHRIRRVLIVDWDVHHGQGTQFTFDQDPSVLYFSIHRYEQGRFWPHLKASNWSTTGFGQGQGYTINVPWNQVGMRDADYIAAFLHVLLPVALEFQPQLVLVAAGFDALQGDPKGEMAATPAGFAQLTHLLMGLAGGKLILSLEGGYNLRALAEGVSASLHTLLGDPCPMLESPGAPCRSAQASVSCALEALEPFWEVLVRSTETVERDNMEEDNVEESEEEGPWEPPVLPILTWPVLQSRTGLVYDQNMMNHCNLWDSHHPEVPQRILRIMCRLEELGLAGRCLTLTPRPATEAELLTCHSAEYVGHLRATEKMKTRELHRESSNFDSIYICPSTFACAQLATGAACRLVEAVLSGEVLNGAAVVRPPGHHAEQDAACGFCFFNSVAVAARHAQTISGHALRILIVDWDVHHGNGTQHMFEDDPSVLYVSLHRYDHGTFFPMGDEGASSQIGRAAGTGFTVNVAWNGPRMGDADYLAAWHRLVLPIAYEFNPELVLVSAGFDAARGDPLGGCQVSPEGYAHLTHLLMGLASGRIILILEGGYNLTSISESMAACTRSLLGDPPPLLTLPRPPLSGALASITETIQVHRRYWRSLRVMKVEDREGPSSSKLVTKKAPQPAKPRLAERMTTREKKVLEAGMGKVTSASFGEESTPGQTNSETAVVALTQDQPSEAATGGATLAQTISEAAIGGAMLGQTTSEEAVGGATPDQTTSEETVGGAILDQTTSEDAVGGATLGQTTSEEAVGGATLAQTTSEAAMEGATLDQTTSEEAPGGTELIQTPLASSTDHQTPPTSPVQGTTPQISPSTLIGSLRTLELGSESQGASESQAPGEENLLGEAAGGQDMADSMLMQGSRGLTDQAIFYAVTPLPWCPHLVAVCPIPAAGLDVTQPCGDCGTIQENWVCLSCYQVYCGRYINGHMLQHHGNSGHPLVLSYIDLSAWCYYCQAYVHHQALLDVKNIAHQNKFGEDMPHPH
Provide the recorded inhibition at 10 µM for the entries that follow.
One number for each entry, in %.

A selection of reference data follows.
| MOL_SMILES | UNIT_ANNOTATION | inhibition at 10 µM |
| --- | --- | --- |
| CC(F)(F)C(=O)N[C@@H]1CCCC[C@H]1N1Cc2ncc(-c3nnc(C(F)F)o3)cc2C1=O | % | 97 |
| CCC(F)(F)C(=O)N[C@@H]1CCCC[C@H]1N1Cc2ccc(-c3nnc(C(F)F)o3)cc2C1=O | % | 100 |
| O=C(O[C@@H]1CCCC[C@H]1N1Cc2ccc(-c3nnc(C(F)F)o3)cc2C1=O)N1CCC1 | % | 98 |
| O=C1c2cc(-c3nnc(C(F)F)o3)ccc2CN1c1ccccc1-c1cccc(F)c1F | % | 97 |
| O=C1c2cc(-c3nnc(C(F)F)o3)cnc2CN1[C@@H]1CCCC[C@H]1NC(=O)C(F)(F)C(F)(F)F | % | 100 |

Hi! Can you tell me inhibition at 10 µM for each of these compounds?
1. O=C1CCCN1[C@@H]1CCCC[C@H]1N1Cc2ccc(-c3nnc(C(F)F)o3)cc2C1=O
2. Cn1cc(-c2cn(C)nc2N2Cc3ccc(-c4nnc(C(F)F)o4)cc3C2=O)cn1
3. O=C1c2cc(-c3nnc(C(F)F)o3)ccc2CN1C1CCOCC1
4. O=C1c2cc(-c3nnc(C(F)F)o3)cnc2CN1Cc1ccc(OC(F)F)cc1
5. CC(C)(C)OC(=O)N1CCCC[C@@H]1CN1Cc2ccc(-c3nnc(C(F)F)o3)cc2C1=O
6. CC(C)Oc1cc(-c2ccccc2N2Cc3ccc(-c4nnc(C(F)F)o4)cc3C2=O)ccn1

// result
1: 99; 2: 98; 3: 95; 4: 101; 5: 98; 6: 100

Hi! Can you tell me inhibition at 10 µM for each of these compounds?
1. O=C1c2cc(-c3nnc(C(F)F)o3)cnc2CN1c1ccc(F)cc1-c1cccc(F)c1
2. O=C1c2cc(-c3nnc(C(F)F)o3)ccc2CN1c1ccnn1-c1ccc(F)cc1

// result
[99, 99]

Values compiled from patent US10435399B2.
